Recorded values, source ChEMBL document CHEMBL2218924.

# EXPERIMENTAL SYSTEM: Serine/threonine-protein kinase Chk1 (Homo sapiens) (UniProt O14757)
# Sequence (O14757 whole entry): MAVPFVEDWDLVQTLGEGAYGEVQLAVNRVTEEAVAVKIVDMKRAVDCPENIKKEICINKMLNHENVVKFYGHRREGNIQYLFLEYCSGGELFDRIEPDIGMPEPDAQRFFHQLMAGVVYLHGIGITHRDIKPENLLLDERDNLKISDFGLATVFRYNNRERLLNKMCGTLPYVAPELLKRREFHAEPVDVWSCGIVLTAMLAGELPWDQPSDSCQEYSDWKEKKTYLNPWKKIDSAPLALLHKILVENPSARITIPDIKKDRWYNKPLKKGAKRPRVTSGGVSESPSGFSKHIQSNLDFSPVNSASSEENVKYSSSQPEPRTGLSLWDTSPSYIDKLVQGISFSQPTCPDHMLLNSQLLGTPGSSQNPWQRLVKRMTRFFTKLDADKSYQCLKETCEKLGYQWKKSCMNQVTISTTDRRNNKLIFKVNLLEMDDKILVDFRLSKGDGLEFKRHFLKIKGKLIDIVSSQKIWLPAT
# SETTINGS: at 1 µM
VALUE KIND: residual activity

In: Recorded residual activity for `N#C/C(=C(\N)Sc1ccc(N)cc1)c1ccccc1C(F)(F)F` , please?
Out: 90%

In: Value lookup for residual activity; key = `COc1cc2ncnc(Nc3ccc(O)c(Br)c3)c2cc1OC`
Out: 80%

In: Need residual activity of `COc1ccc(OC)c2c(=S)c3ccccc3[nH]c12` , thanks.
Out: 108%

In: Reported residual activity, compound `Nc1cccc(-c2cc3c(Oc4cccc(O)c4)ncnc3[nH]2)c1` : ____
Out: 45%

In: I am curious: what residual activity value has been reported for `O=C(O)c1ccc2c3c1cccc3c(=O)n1c3ccccc3nc21` ?
Out: 99%

In: # lookup: residual activity of `COc1cc2ncnc(N3CCN(C(=O)Nc4ccc(Oc5ccccc5)cc4)CC3)c2cc1OC`
Out: 82%
